Target: T1, recombinant rat MASP1 active protease (amino acids 302-704, C-terminal His Tag) (rat, UniProt Q8CHN8 302-704)
T1 sequence: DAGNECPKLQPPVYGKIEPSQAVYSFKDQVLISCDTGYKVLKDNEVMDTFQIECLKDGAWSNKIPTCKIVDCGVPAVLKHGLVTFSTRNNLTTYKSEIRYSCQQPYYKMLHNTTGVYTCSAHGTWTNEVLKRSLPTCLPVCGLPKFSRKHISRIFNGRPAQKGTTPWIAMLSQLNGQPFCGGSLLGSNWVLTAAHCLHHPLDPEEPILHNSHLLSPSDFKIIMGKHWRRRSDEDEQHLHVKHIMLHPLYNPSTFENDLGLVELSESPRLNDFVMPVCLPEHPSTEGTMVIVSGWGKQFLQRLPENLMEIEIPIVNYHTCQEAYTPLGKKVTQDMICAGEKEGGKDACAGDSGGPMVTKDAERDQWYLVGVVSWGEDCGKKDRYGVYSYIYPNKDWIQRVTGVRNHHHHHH
Assay: cell-based or functional assay
Bridge positions count the residues as written; N and C are the ends. Square brackets hold non-standard residues; d marks the D form. Ends that are not written are not given here. Pro(4-spirocPr) = O=C(O)[C@@H]1CC2(CC2)CN1; Oic = O=C(O)[C@@H]1C[C@@H]2CCCC[C@@H]2N1; tBuAla = CC(C)(C)C[C@H](N)C(=O)O; PEG5 = NCCOCCOCCOCCOCCOCCC(=O)O; Pen = CC(C)(S)[C@H](N)C(=O)O; NMeC = CN[C@@H](CS)C(=O)O; Sar = CNCC(=O)O
For each of the binders below, state its rat MASP1 IC50.
Give bare numbers, in nM.

The cases that follow already have their rat MASP1 IC50 on record.
Binder | Reading
SICSRS[tBuAla]PPI[NMeC]I-NH2 (disulfide 3-11; N-terminus assumed; SMILES CC[C@H](C)[C@H](NC(=O)[C@@H]1CSSC[C@H](NC(=O)[C@@H](NC(=O)[C@@H](N)CO)[C@@H](C)CC)C(=O)N[C@@H](CO)C(=O)N[C@@H](CCCNC(=N)N)C(=O)N[C@@H](CO)C(=O)N[C@@H](CC(C)(C)C)C(=O)N2CCC[C@H]2C(=O)N2CCC[C@H]2C(=O)N[C@@H]([C@@H](C)CC)C(=O)N1C)C(N)=O) [Example 103: SIC+SRS-((tBu)A)-PPI-((N-Me)C)+I-NH2] | 110
KICSRS[tBuAla]PPI[NMeC]IPD-NH2 (disulfide 3-11; N-terminus assumed; SMILES CC[C@H](C)[C@H](NC(=O)[C@@H](N)CCCCN)C(=O)N[C@H]1CSSC[C@@H](C(=O)N[C@H](C(=O)N2CCC[C@H]2C(=O)N[C@@H](CC(=O)O)C(N)=O)[C@@H](C)CC)N(C)C(=O)[C@H]([C@@H](C)CC)NC(=O)[C@@H]2CCCN2C(=O)[C@@H]2CCCN2C(=O)[C@H](CC(C)(C)C)NC(=O)[C@H](CO)NC(=O)[C@H](CCCNC(=N)N)NC(=O)[C@H](CO)NC1=O) [Example 35: KIC+SRS-((tBu)A)-PPI-((N-Me)C)+IPD-NH2] | 46
[Sar]ICSRSLP[Oic]I[Pen]IP-{PEG5-NH2} (disulfide 3-11) [Example 97: ((N-Me)G)-IC+SRSLP-(Oic)-I-(Pen)+IP-(PEG4(19 atoms))-NH2] | 120

API: the following record is the query input.
For the binder AICSRSLP[Pro(4-spirocPr)]I[Pen]IPD-NH2 (disulfide 3-11; N-terminus assumed; SMILES CC[C@H](C)[C@H](NC(=O)[C@H](C)N)C(=O)N[C@H]1CSSC(C)(C)[C@@H](C(=O)N[C@H](C(=O)N2CCC[C@H]2C(=O)N[C@@H](CC(=O)O)C(N)=O)[C@@H](C)CC)NC(=O)[C@H]([C@@H](C)CC)NC(=O)[C@@H]2CC3(CC3)CN2C(=O)[C@@H]2CCCN2C(=O)[C@H](CC(C)C)NC(=O)[C@H](CO)NC(=O)[C@H](CCCNC(=N)N)NC(=O)[C@H](CO)NC1=O) [Example 17: AIC+SRSLP-((6S)-5-Azaspiro[2.4]heptane-6-carboxylic acid)-I-(Pen)+IPD-NH2] , give its measured rat MASP1 IC50 value.
31
